protocol-notes: NCI Yeast Anticancer Drug Screen. Data for the sgs1 mgt1 strain (AID 161);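 note: 0% = growth of cultures given vehicle only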
condition: S. cerevisiae sgs1 mgt1 strain, at 50.0 µM, hits give high values
This is part of a sample that, as a whole, favours compounds with a hit. Of some 79,000 tested, about 15% had one in any assay.
Each entry below carries its reported growth inhibition.

[
  {
    "compound": "C=CC(=O)NC1CCCCC1",
    "unit-text": "%",
    "growth inhibition": -19.8
  },
  {
    "compound": "N#Cc1nc(-c2ccco2)oc1N",
    "unit-text": "%",
    "growth inhibition": -23.2
  },
  {
    "compound": "CC12CCC3C(CCC4CC(O)(C(=O)O)CC43C)C1CCC2O (configuration not stated)",
    "unit-text": "%",
    "growth inhibition": -19.9
  },
  {
    "compound": "Cc1c(C(=O)NNc2ccccc2)n2c(=S)[nH]nc2c2ccccc12",
    "unit-text": "%",
    "growth inhibition": -7.85
  },
  {
    "compound": "CC1CC(=O)c2cc3oc(=O)n(C)c3cc21 (configuration not stated)",
    "unit-text": "%",
    "growth inhibition": -6.2
  },
  {
    "compound": "CC(C)=C(CO)CCC(C)C",
    "unit-text": "%",
    "growth inhibition": -10.4
  },
  {
    "compound": "CC(C)NCCC(O)c1cc2ccccc2o1 (configuration not stated)",
    "unit-text": "%",
    "growth inhibition": -17.6
  },
  {
    "compound": "NC(=O)c1cccc(F)c1",
    "unit-text": "%",
    "growth inhibition": -10
  },
  {
    "compound": "CCCNCC(O)COc1ccc2c3c(c(=O)oc2c1)CCC3 (configuration not stated)",
    "unit-text": "%",
    "growth inhibition": -23.9
  },
  {
    "compound": "COc1c2c(cc3c1[C@@H]1Oc4c(ccc(O)c4CC=C(C)C)[C@@H]1CO3)OC(C)(C)C=C2",
    "unit-text": "%",
    "growth inhibition": 36.9
  },
  {
    "compound": "Nc1cc(S(=O)(=O)O)ccc1O",
    "unit-text": "%",
    "growth inhibition": -21.9
  },
  {
    "compound": "CCOc1ccc(-n2c(C)c(COC(=O)NC)c(COC(=O)NC)c2C)cc1",
    "unit-text": "%",
    "growth inhibition": 68.9
  },
  {
    "compound": "CCC(Nc1ccccc1)C(=O)O (configuration not stated)",
    "unit-text": "%",
    "growth inhibition": -8.9
  },
  {
    "compound": "O=c1[nH]c(=O)n(C2OC(CO)C(O)C2O)cc1NN=NCc1ccccc1 (configuration not stated)",
    "unit-text": "%",
    "growth inhibition": -11.2
  },
  {
    "compound": "C=CCn1c(C23CC4CC(CC(C4)C2)C3)n[nH]c1=S",
    "unit-text": "%",
    "growth inhibition": -8.45
  },
  {
    "compound": "CCCCCCCCCCCCCCCCOC(=O)/C=C/c1ccccc1",
    "unit-text": "%",
    "growth inhibition": -7.45
  },
  {
    "compound": "O=C1C(Cl)C(c2ccccc2)N1n1cnc2ccccc2c1=O (configuration not stated)",
    "unit-text": "%",
    "growth inhibition": -24.1
  },
  {
    "compound": "COC(OC)c1ccccc1CO",
    "unit-text": "%",
    "growth inhibition": -6.1
  },
  {
    "compound": "c1ccc(CNc2ccccc2)cc1",
    "unit-text": "%",
    "growth inhibition": -24.4
  },
  {
    "compound": "O=C(O)COc1ccc([N+](=O)[O-])cc1/C=C1/SC(=S)N(c2ccccc2)C1=O",
    "unit-text": "%",
    "growth inhibition": 18.9
  },
  {
    "compound": "C=Cc1ccc(OC2OC(CO)C(OC3OC(CO)C(O)C(O)C3O)C(O)C2O)cc1 (configuration not stated)",
    "unit-text": "%",
    "growth inhibition": -1.1
  },
  {
    "compound": "Cc1[nH]c(N)nc(=S)c1CCC(C)C",
    "unit-text": "%",
    "growth inhibition": -1.05
  }
]

Reference source: PubChem BioAssay (NCI)
